target: T1, full-length human Tau (Tau441; 2N4R), recombinant (human, UniProt P10636 1-758); test: SPR Biacore
T1 construct: made in E. coli, His6-Smt3 tag removed; biotinylated through amines for Octet and phage work; also called r-Tau; recombinant Tau
T1 sequence (P10636 other isoform, or with tags, fused parts or gaps limits assumed): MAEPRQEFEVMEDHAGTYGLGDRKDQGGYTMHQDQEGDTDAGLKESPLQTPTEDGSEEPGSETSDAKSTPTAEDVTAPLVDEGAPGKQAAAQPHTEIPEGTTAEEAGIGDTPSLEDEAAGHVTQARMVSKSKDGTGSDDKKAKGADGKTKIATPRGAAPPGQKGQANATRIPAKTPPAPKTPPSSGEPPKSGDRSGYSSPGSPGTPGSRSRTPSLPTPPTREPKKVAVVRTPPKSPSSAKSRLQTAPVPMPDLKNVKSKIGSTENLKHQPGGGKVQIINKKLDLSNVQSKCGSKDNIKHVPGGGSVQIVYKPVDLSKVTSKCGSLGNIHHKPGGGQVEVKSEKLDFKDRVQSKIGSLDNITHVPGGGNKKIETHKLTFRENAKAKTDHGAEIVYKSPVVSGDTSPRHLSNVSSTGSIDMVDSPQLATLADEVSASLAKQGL
koff of 0.0002 s⁻¹ or higher: class 1. Under 0.0002 s⁻¹: class 0.

binder	cat
Clone with L1_3-3 (antibody, V domains shown, based on hu1C7.v2) VH: EVQLLESGGGLVQPGGSLRLSCAASGFTFSSYGMSWVRQAPGKGLEWVASISGDGGSYIHYADSVKGRFTISRDNSKNTLYLQMNSLRAEDTAVYYCARLPYWGQGTLVTVSS VL: DIVMTQSPDSLAVSLGERATINCKSSQSLHYSGTQKDYLVWYQQKPGQPPKLLIYWASTRESGVPDRFSGSGSGTDFTLTISSLQAEDVAVYYCQQYNSYPLTFGQGTKVEIK	class 1
Clone with L1_3-5 (antibody, V domains shown, based on hu1C7.v2) VH: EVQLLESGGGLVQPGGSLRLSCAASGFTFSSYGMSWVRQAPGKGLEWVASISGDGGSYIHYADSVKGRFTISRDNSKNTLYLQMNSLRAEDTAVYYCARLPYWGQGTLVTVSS VL: DIVMTQSPDSLAVSLGERATINCKSSQSLHMSGTQKDYLVWYQQKPGQPPKLLIYWASTRESGVPDRFSGSGSGTDFTLTISSLQAEDVAVYYCQQYNSYPLTFGQGTKVEIK	class 1
Clone with H1_2-4 (antibody, V domains shown, based on hu1C7.v2) VH: EVQLLESGGGLVQPGGSLRLSCAASGFTFSLVGTSWVRQAPGKGLEWVASISGDGGSYIHYADSVKGRFTISRDNSKNTLYLQMNSLRAEDTAVYYCARLPYWGQGTLVTVSS VL: DIVMTQSPDSLAVSLGERATINCKSSQSLLNSGNQKNYLTWYQQKPGQPPKLLIYWASTRESGVPDRFSGSGSGTDFTLTISSLQAEDVAVYYCQQYNSYPLTFGQGTKVEIKR	class 0
hu1C7.v2 (S49A) (antibody, V domains shown) VH: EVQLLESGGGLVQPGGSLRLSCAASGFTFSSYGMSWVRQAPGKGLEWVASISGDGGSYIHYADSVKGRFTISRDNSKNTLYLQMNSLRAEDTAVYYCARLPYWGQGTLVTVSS VL: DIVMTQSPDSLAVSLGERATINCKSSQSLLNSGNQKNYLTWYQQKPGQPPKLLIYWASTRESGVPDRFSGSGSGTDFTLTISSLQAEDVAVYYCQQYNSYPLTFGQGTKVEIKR	class 1

// provenance: patent US20200216522A1
